Target: EPH-A4 (Homo sapiens, UniProt P54764)
Sequence (P54764 20-986, species assumed): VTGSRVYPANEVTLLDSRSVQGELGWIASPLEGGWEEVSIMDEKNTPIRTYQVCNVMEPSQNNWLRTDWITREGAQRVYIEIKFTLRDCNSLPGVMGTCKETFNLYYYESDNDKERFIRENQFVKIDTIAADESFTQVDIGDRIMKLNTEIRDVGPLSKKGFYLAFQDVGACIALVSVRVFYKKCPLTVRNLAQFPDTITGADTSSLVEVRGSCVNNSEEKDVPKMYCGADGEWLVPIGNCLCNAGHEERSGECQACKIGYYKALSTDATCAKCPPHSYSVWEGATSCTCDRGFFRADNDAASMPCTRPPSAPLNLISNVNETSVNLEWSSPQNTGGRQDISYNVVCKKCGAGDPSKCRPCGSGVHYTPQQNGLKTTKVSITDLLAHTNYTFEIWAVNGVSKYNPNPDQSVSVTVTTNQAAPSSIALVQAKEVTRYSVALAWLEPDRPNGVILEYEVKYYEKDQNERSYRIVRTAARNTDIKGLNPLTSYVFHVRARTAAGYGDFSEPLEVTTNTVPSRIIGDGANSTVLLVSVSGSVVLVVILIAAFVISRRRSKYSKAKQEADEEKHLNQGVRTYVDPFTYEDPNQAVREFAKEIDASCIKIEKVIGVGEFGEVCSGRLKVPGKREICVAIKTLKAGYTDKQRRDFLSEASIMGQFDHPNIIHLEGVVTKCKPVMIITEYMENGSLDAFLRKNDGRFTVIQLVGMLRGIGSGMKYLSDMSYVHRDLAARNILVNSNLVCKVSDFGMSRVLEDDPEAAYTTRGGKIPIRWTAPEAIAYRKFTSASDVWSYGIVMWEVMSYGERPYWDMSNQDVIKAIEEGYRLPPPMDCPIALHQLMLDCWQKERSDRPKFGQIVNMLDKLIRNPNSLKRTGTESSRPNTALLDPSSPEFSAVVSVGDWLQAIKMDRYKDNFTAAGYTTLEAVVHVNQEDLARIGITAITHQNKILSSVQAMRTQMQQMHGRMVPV
Assay: Kinase panel (mobility shift)
Format: biochemical
Method: The disclosed compounds were tested for activity against a panel of 299 kinases. The target enzyme was incubated with fluorescently labeled substrate and test compounds in a standardized reaction mixture in 384 well plates. Upon termination of the reaction, samples were introduced onto microfluidic chips. […] Enzyme activity was measured by direct comparison of the fluorescence in the product and substrate peaks. […]
recorded_metric: inhibition at 5 µM

{"mol_smiles": "COc1nc(C(=O)Nc2ccc(Oc3ccnc(C(=O)NC4COC4)c3)c(F)c2)c(-c2ccc(F)cc2)o1", "system_under_test": "EPH-A4 (Homo sapiens, UniProt P54764)", "meas_value": "< 50%"}
{"mol_smiles": "CNC(=O)c1cc(Oc2ccc(NC(=O)c3nc(OC)oc3-c3ccc(F)cc3)cc2F)ccn1", "system_under_test": "EPH-A4 (Homo sapiens, UniProt P54764)", "meas_value": "50 to 79%"}
{"mol_smiles": "CNC(=O)c1ccc(Oc2ccc(NC(=O)c3nc(Cl)oc3-c3ccc(F)cc3)c(F)c2)cn1", "system_under_test": "EPH-A4 (Homo sapiens, UniProt P54764)", "meas_value": "< 50%"}
{"mol_smiles": "[2H]C([2H])([2H])NC(=O)c1cc(Oc2ccc(NC(=O)c3nc(SC)oc3-c3ccc(F)c(F)c3)cc2F)ccn1", "system_under_test": "EPH-A4 (Homo sapiens, UniProt P54764)", "meas_value": "< 50%"}

Request: inhibition at 5 µM lookup needed for `CSc1nc(C(=O)Nc2ccc(Oc3ccnc(-c4cnn(C)c4)c3)c(F)c2)c(-c2ccc(F)cc2)o1` , thanks.
Result: 90 to 94%

Request: inhibition at 5 µM lookup needed for `CSc1nc(C(=O)Nc2ccc(Oc3ccnc(C(=O)NC4CCN(C)CC4)c3)c(F)c2)c(-c2ccc(F)cc2)o1` , thanks.
Result: < 50%

Request: inhibition at 5 µM lookup needed for `CSc1nc(C(=O)Nc2ccc(Oc3ccnc(C(=O)NC4COC4)c3)c(F)c2)c(-c2ccc(F)cc2)o1` , thanks.
Result: < 50%

Source of measurements: patent US11629143B2
